Give measured IC50 for each item. Keep answers brief.
- Experimental System: PI3Kα (Homo sapiens)
- Sequence (P42336 whole entry): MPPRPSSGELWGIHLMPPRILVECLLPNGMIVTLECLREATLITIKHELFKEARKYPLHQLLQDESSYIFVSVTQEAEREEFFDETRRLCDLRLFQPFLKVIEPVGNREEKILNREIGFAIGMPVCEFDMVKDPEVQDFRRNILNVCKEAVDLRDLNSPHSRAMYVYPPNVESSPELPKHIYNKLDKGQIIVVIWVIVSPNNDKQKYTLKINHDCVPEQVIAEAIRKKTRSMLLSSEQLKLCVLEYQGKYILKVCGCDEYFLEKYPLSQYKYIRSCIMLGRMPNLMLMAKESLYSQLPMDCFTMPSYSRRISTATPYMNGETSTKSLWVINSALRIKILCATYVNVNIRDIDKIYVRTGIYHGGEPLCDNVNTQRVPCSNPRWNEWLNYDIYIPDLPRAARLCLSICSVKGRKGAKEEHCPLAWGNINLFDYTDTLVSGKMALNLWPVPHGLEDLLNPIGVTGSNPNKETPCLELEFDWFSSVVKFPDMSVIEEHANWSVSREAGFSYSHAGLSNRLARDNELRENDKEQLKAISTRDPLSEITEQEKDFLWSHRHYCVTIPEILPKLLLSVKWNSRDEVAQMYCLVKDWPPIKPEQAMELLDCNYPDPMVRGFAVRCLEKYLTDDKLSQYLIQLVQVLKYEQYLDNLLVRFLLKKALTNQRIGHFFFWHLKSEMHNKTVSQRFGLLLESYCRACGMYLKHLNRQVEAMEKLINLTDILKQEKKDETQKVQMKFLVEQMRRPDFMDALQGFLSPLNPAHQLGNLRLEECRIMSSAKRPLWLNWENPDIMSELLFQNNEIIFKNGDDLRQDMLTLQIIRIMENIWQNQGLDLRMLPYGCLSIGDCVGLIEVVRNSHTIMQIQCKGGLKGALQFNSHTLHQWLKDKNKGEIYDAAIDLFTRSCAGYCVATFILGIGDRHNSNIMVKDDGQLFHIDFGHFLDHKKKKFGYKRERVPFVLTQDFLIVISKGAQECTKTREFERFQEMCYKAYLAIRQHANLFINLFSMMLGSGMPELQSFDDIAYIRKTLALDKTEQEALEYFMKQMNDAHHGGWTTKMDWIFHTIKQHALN
- Sequence (P27986 2-724 partner): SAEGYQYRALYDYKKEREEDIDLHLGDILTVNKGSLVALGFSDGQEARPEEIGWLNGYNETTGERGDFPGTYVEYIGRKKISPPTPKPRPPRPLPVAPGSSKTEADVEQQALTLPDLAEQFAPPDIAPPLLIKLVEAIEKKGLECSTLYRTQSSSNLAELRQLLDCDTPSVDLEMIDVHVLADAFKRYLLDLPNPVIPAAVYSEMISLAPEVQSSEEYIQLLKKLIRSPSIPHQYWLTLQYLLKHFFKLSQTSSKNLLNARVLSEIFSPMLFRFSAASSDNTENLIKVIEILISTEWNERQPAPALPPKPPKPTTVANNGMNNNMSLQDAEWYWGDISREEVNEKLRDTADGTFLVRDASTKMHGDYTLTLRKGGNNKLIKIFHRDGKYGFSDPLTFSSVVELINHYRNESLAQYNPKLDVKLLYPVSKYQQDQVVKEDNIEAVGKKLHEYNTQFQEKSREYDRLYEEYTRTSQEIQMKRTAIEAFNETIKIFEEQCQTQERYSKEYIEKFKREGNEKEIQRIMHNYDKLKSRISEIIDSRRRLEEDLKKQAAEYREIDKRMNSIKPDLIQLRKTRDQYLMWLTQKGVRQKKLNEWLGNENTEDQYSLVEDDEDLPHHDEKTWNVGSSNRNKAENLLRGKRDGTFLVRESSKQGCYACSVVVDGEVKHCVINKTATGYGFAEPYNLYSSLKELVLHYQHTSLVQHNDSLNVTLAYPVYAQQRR
- Assay Procedure: PI3Kα enzyme assay (Transcreener ADP2 TR-FRET Red Assay)
- Study Conditions: purified recombinant full-length protein; 2 hours pre-incubation with compound; read-out: PI3Kα WT IC50

Sure, the documented IC50 for `Cc1cc([C@@H](C)Nc2ccc(Cl)nc2S(=O)(=O)NC(=O)C(C)C)c2nc(N3Cc4ccc(F)cc4C3)n(C)c(=O)c2c1` is ≥ 1000 nM

The compound identified as `C[C@@H](Nc1ccc(Cl)nc1C(=O)NS(C)(=O)=O)c1cc(F)cc2c(=O)n(C)c(N3Cc4ccc(F)cc4C3)nc12` registered its IC50 at < 100 nM

response.value for `C[C@@H](Nc1cccnc1C(=O)NS(C)(=O)=O)c1cccc2c(=O)n(C)c(N3Cc4ccc(F)cc4C3)nc12` (field: IC50) = ≥ 1000 nM

`Cc1cc([C@@H](C)Nc2ccc(F)cc2C(=O)NS(C)(=O)=O)c2nc(N3CCC(F)(F)CC3)n(C)c(=O)c2c1` yielded IC50 of ≥ 1000 nM

The compound identified as `Cc1cc([C@@H](C)Nc2ccc(Cl)nc2C(=O)NS(C)(=O)=O)c2nc(N3Cc4ccc(F)cc4C3)n(C)c(=O)c2c1` registered its IC50 at ≥ 1000 nM

Query `Cc1cc([C@@H](C)Nc2cccnc2C(=O)NS(C)(=O)=O)c2nc(N3Cc4ccc(F)cc4C3)n(C)c(=O)c2c1` yields IC50 of ≥ 1000 nM
